- System: BRM-dependent transcription (BRG1 mutant lung cancer cell line A549)
- Assay Protocol: BRM-dependent transcription, MMTV luciferase reporter in BRG1 mutant A549 cells
- Format: cell-based
- Test Settings: MMTV luciferase reporter cell lines, selectivity BRG1/BRM, Table 11
Doc: threshold 40 (exclusive). Items with Ratio (MDA-MMTV IC50 (μM) divided by A549-MMTV IC50 (μM)) beneath it return Condition met; others return Condition not met.

As a guide, the following entries are already answered.
Compound | Class Label
COc1nc([C@](C)(F)C(F)F)ccc1-c1ccc2cnc(CNC(=O)c3cc(F)c4c(c3)S(=O)(=O)[C@@H](F)CCO4)cc2n1 [Compound 363] | Condition met
CCOc1nc([C@@H](F)CF)ccc1-c1ccc2cnc(CNC(=O)c3cc(Br)c4c(c3)S(=O)(=O)[C@@H](F)COC4)cc2n1 [Compound 517] | Condition met
O=C(NCc1cc2nc(-c3cccc4c3OC(F)(F)O4)ccc2cn1)c1cc(C(F)F)c2c(c1)S(=O)(=O)[C@@H](F)COC2 [Compound 503] | Condition met
CCOc1cccc(-c2ccc3cnc(CNC(=O)c4cc(Cl)c5c(c4)S(=O)(=O)[C@@H](F)CCO5)cc3n2)n1 [Compound 359] | Condition met
[2H]C([2H])([2H])C([2H])([2H])Oc1ccc(-c2ccc3cnc(CNC(=O)c4cc(F)c5c(c4)S(=O)(=O)[C@@]([2H])(F)C([2H])([2H])C([2H])([2H])O5)cc3n2)nc1C1CC1(F)F (stereo partly drawn) [Compound 378] | Condition not met

In the record for CN1Cc2c(Cl)cc(C(=O)NCc3cc4nc(-c5cccc(OC(F)F)n5)ccc4cn3)cc2S(=O)(=O)[C@H](F)C1 [Compound 466] , is Ratio (MDA-MMTV IC50 (μM) divided by A549-MMTV IC50 (μM)) less than 40?
Condition not met

----------
- Test system: BRM-dependent transcription (BRG1 mutant lung cancer cell line A549)
- Assay Protocol: BRM-dependent transcription, MMTV luciferase reporter in BRG1 mutant A549 cells
- Format: cell-based
- Test Settings: MMTV luciferase reporter cell lines, selectivity BRG1/BRM, Table 11
Property Label: Ratio (MDA-MMTV IC50 (μM) divided by A549-MMTV IC50 (μM))
Answer with a bare number; do not write a unit.

# count of solved cases: 5
Compound | System Tested | Result Value
CCOc1nc(C(F)F)ccc1-c1ccc2cnc(CNC(=O)c3cc(Br)c4c(c3)S(=O)(=O)[C@@H](F)COC4)cc2n1 | BRM-dependent transcription (BRG1 mutant lung cancer cell line A549) | 43.58
O=C(NCc1cc2nc(-c3cccc(OC(F)(F)Cl)n3)ccc2cn1)c1cc(Cl)c2c(c1)S(=O)(=O)[C@@H](F)CCO2 | BRM-dependent transcription (BRG1 mutant lung cancer cell line A549) | 31.16
O=C(NCc1cc2nc(-c3ccc([C@@H](F)C(F)F)c(C4CC4)n3)ccc2cn1)c1cc(Cl)c2c(c1)S(=O)(=O)[C@@H](F)COC2 | BRM-dependent transcription (BRG1 mutant lung cancer cell line A549) | 25.21
[2H]C([2H])([2H])C([2H])([2H])Oc1nc([C@@H](F)CF)ccc1-c1ccc2cnc(CNC(=O)c3cc(C(F)F)c4c(c3)S(=O)(=O)[C@@H](F)COC4)cc2n1 | BRM-dependent transcription (BRG1 mutant lung cancer cell line A549) | 35.46
O=C(NCc1cc2nc(-c3ccnc(N4CCCC4)n3)ccc2cn1)c1cc(Cl)c2c(c1)S(=O)(=O)[C@@H](F)CCO2 | BRM-dependent transcription (BRG1 mutant lung cancer cell line A549) | 21.59

Give recorded Ratio (MDA-MMTV IC50 (μM) divided by A549-MMTV IC50 (μM)). O=C(NCc1cc2nc(N3CCOc4cc(N5CC(F)(F)C5)cnc43)ccc2cn1)c1cc(F)c2c(c1)S(=O)(=O)[C@@H](F)CCO2
21.63

Fill in Ratio (MDA-MMTV IC50 (μM) divided by A549-MMTV IC50 (μM)) for record COCCOc1cnc2c(c1)OCCN2c1ccc2cnc(CNC(=O)c3cc(C(F)F)c4c(c3)S(=O)(=O)[C@@H](F)COC4)cc2n1
35.93

Note Ratio (MDA-MMTV IC50 (μM) divided by A549-MMTV IC50 (μM)) for the compound shown: CCOc1nccc2c1OCCN2c1ccc2cnc(CNC(=O)c3cc(Cl)c4c(c3)S(=O)(=O)[C@@H](F)COC4)cc2n1
52.71

Name the recorded Ratio (MDA-MMTV IC50 (μM) divided by A549-MMTV IC50 (μM)) of the compound listed here: COCCOc1cnc2c(c1)C(F)(F)CCN2c1ccc2cnc(CNC(=O)c3cc(Br)c4c(c3)S(=O)(=O)[C@@H](F)CCO4)cc2n1
25.94

Using known records, supply Ratio (MDA-MMTV IC50 (μM) divided by A549-MMTV IC50 (μM)) for CCOc1cccc(-c2ccc3cnc(CNC(=O)c4cc(F)c5c(c4)S(=O)(=O)[C@@H](F)CCO5)cc3n2)n1
27.40

Read off the recorded Ratio (MDA-MMTV IC50 (μM) divided by A549-MMTV IC50 (μM)) for C[C@@H](CF)c1ccc2c(n1)N(c1ccc3cnc(CNC(=O)c4cc(F)c5c(c4)S(=O)(=O)[C@@H](F)CCO5)cc3n1)CCO2
25.07

Supply Ratio (MDA-MMTV IC50 (μM) divided by A549-MMTV IC50 (μM)) value. Item: CCOc1ccc(-c2ccc3cnc(CNC(=O)c4cc(Cl)c5c(c4)S(=O)(=O)[C@@H](F)CCO5)cc3n2)nc1C1CC1(F)F (stereo partly drawn)
27.27
